- Test system: c-Abl (mouse);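 further: 11-residue human phosphosite peptides and single-mutation variants displayed on the E. coli surface, counted by deep sequencing, each peptide's frequency after selection divided by its frequency in the unselected input library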;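 further: frequency after pTyr selection over input frequency; kinase dosed for 20-30% of maximal phosphorylation in three min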
- assaySummary: phosphorylation enrichment, bacterial display (enrichment ratio); higher = better substrate or ligand; peptides without Tyr show the background

chainSequence | assayedSystem | phosphorylation enrichment
DNPAKYFILES [DPP10_Y512] | c-Abl (mouse) | 0.558
KANEFYPVVII [ADAMTS18_Y765_L769I_YF] | c-Abl (mouse) | 0.663
QSMEPYTKQQL [STAT3_Y640_V637M] | c-Abl (mouse) | 0.445
GTYVIYVRFSG [FLNB_Y1687_G1691S] | c-Abl (mouse) | 0.941
PLQDVYKIGGI [EEF1A2_Y254] | c-Abl (mouse) | 1.92
ITVPAYFNDSQ [HSPA9_Y196] | c-Abl (mouse) | 0.785
MRTMGYMPTEM [CABP5_Y62] | c-Abl (mouse) | 0.447
LFQAKYQIRFR [CRLF1_Y272_YF] | c-Abl (mouse) | 1.31
VISNAYVDLSP [HSD17B4_Y602_A606S] | c-Abl (mouse) | 0.711
RQRTAYFSLNT [CDH1_Y68_D72N] | c-Abl (mouse) | 0.77
SGVSYYINLCQ [IGF2R_Y2025_N2020S] | c-Abl (mouse) | 0.803
NMRSTYAKLAA [SEC22B_Y193_H190R] | c-Abl (mouse) | 0.453
ITNVLYHVVGW [GBA_Y412_L410V] | c-Abl (mouse) | 4.13
QRTMKYTTATG [MCCC1_Y41] | c-Abl (mouse) | 0.727
GFKVRYATGSI [FGFR1_Y210_W213G_YF] | c-Abl (mouse) | 0.541
GLDGSYLLTDS [SH2D1A_Y29_R32T] | c-Abl (mouse) | 0.551
VIEYSYTSADG [DHCR7_Y382_C380Y] | c-Abl (mouse) | 0.686
CNPLCYPTIMI [OR6K6_Y160_R159C] | c-Abl (mouse) | 0.596
KIVQDYLEKFF [MMP8_Y36_T32I_YF] | c-Abl (mouse) | 0.956
KIEGIYARDET [RPL35A_Y34_V33I] | c-Abl (mouse) | 0.493
KSAAIYNPVIY [RHO_Y301] | c-Abl (mouse) | 0.727
VDSLRYIFPKL [EIF2B3_Y92_A87V_YF] | c-Abl (mouse) | 0.85
HSYNSYTYPRL [PAK5_Y316] | c-Abl (mouse) | 0.553
RKVAQYMLENE [SLC16A6_Y224_E221V] | c-Abl (mouse) | 0.506
PGPQSYPIVTG [PAX5_Y299] | c-Abl (mouse) | 0.5
LANNEYYFQVC | c-Abl (mouse) | 1.02
ATRDVYNPFET [SCAMP3_Y41_L38R] | c-Abl (mouse) | 0.617
NTGDDYDLFGG [PTPN11_Y63_Y62D_YF] | c-Abl (mouse) | 0.826
GKGGSYSKAEW [HLA-E_Y341] | c-Abl (mouse) | 0.496
